Assay: DAX1 (NR0B1) inhibitors on StAR promoter, primary screen, cell-based, luminescence, SF-1 (NR5A1), full-length DAX-1 (AID 652010);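 note: 0% = DAX-1 cells with DMSO and 100% = cells lacking DAX-1 with DMSO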
Settings: HEK293T StAR-luciferase reporter, SF-1/DAX-1 repression relief; at 6.8 µM; stronger effect = higher value
About 4,100 (1.1%) of roughly 370,000 compounds were called active. The sample holds actives, similar compounds and a random draw of the others, so the mix is not that of the screen.
Catalogue of inhibition values
Answer in %, number only, no unit symbol.

{"compound": "Cc1c(C(=O)NC2CCCCC2)oc2ccccc12", "readout_number": 0.4}
{"compound": "c1ccc(Cc2c(-c3ccco3)nc3c4ccccc4ccn23)cc1", "readout_number": 5.34}
{"compound": "O=C(Nc1ncccc1O)c1ccc(S(=O)(=O)N2CCCC2)cc1", "readout_number": 10.9}
{"compound": "CCOc1ccc(NC(=O)COc2ccc(S(=O)(=O)N3CCCC3)cc2)cc1", "readout_number": -0.61}
{"compound": "COC(=O)[C@]12C[C@H](CC(=O)NCc3ccccc3)C(=O)N(CCc3ccc(OC)c(OC)c3)C1=C[C@H](C(C)(C)C)O[C@@H]2C", "readout_number": -0.61}

Please look up its inhibition: `O=C(Nc1ccn(Cc2ccccc2)n1)c1cccc(F)c1`
4.43

Find the recorded inhibition belonging to `COc1ccc(-c2csc(Cc3nc(O)cs3)n2)cc1` and report it.
4.06

Consider the compound `O=C(N[C@H](Cc1ccccc1)C(=O)N1CCCN(Cc2cccs2)CC1)[C@H]1O[C@@H](n2ccc(=O)[nH]c2=O)[C@H](O)[C@@H]1O` and give its measured inhibition.
1.64

Which inhibition reading was recorded for the compound `COC(=O)[C@]12C[C@H](CC(=O)NCc3ccc(C)o3)C(=O)N(CCC3=CCCCC3)C1=C[C@H](C(C)(C)C)O[C@@H]2C` ?
-0.72

Any idea what its inhibition is? The compound is `CN1[C@H](Cc2ccccc2)COc2cccc(N3CCSCC3)c2S1(=O)=O`
-1

* * *

Assay: DAX1 (NR0B1) inhibitors on StAR promoter, primary screen, cell-based, luminescence, SF-1 (NR5A1), full-length DAX-1 (AID 652010);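 note: 0% = DAX-1 cells with DMSO and 100% = cells lacking DAX-1 with DMSO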
Conditions: HEK293T StAR-luciferase reporter, SF-1/DAX-1 repression relief; at 6.8 µM
Out of some 370,000 compounds screened, about 4,100 (1.1%) were called active.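 How the source made its calls: active means inhibition above the mean over all tested compounds plus 3 SD (cut at about 3.6% in these data); inactive means the rest.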 This is one part of a sample in which actives are shown more often than they occur.
Pick one: YES = active, NO = inactive

Please review the entries below; each comes with its answer.
{"compound": "O=C(NC(=S)Nc1ccc(Br)cc1F)C1CCCCC1", "assigned_class": "NO"}
{"compound": "CN(C)c1ccc(NC(=O)NC2CCCCN(Cc3ccc(Cl)cc3)C2=O)cc1 (stereo not drawn)", "assigned_class": "NO"}
{"compound": "O=C(NC(=S)Nc1ccc(Cl)cc1Cl)C1CC1", "assigned_class": "YES"}
{"compound": "C/C(=N\\Nc1nc2ccccc2[nH]1)c1cccs1", "assigned_class": "NO"}
{"compound": "COC(=O)C1=C(C)N(Cc2ccccc2C(F)(F)F)C(=NCC2CC2)NC1c1cccc(Cl)c1 (stereo not drawn)", "assigned_class": "NO"}

Name the outcome recorded for `COc1cccc(NC(=O)C/C(C)=N/NC(=O)C2CCCCC2)c1` in the assay.
NO

Test call, this compound: `COc1ccc(-c2c(NC(=O)c3ccco3)oc3ccc(Cl)cc3c2=O)cc1`
NO

Field: outcome | Entry: `CCOC(=O)c1nc(-c2ccc3c(c2)OCO3)[nH]c1C`
NO

* * *

Assay: DAX1 (NR0B1) inhibitors on StAR promoter, primary screen, cell-based, luminescence, SF-1 (NR5A1), full-length DAX-1 (AID 652010);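 note: 0% = DAX-1 cells with DMSO and 100% = cells lacking DAX-1 with DMSO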
Conditions: HEK293T StAR-luciferase reporter, SF-1/DAX-1 repression relief; at 6.8 µM; stronger effect = higher value
Hit rate of the full screen: of about 370,000 compounds, about 4,100 (1.1%) were called active. The full list was thinned out, with actives kept by preference.
Below, each of the molecules is paired with its reported inhibition value.
Give the quantity in %, number only.

Study these solved cases before continuing.
{"molecule": "CC(C(=O)N1CCc2ccccc21)N(C)CC(=O)Nc1ccc(F)cc1 (stereo not given)", "inhibition, %": -0.82}
{"molecule": "COc1cc(/C=C/CO)cc(OC)c1O[C@@H]1O[C@H](CO)[C@@H](O)[C@H](O)[C@H]1O", "inhibition, %": 0.72}

Switching to the query record.
Record request: inhibition value, item COc1ccc(CCOC2OC(CO)C(OC(=O)/C=C/c3ccc(O)c(OC)c3)C(O[C@H]3O[C@@H](C)[C@H](O)[C@@H](O)[C@H]3O)C2O)cc1O (stereo not given in full)
4.55

* * *

Assay: DAX1 (NR0B1) inhibitors on StAR promoter, primary screen, cell-based, luminescence, SF-1 (NR5A1), full-length DAX-1 (AID 652010);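 note: 0% = DAX-1 cells with DMSO and 100% = cells lacking DAX-1 with DMSO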
Conditions: HEK293T StAR-luciferase reporter, SF-1/DAX-1 repression relief; at 6.8 µM; stronger effect = higher value
The campaign covered roughly 370,000 compounds. About 4,100 (1.1%) were called active. Many of the other results were omitted from the sample, so actives are more common in it than they were.
metric: inhibition (%)
Numbers only; they are read as %.

{"molecule": "O=C(NN=Cc1ccco1)C(=O)Nc1ccc(Cl)c([N+](=O)[O-])c1", "readout_number": 0.2}

# input molecule: CC(C)N1CCCCC(NC(=O)c2ccc3ccccc3c2)C1=O (stereo not given) ; wanted: its inhibition
0.26

Recorded inhibition for `O=C(O)c1ccc(N/N=C/c2cn(-c3ccccc3)nc2-c2cccs2)cc1` , please?
6.23

# query: inhibition of entry `Cc1c(NC(=O)C(=O)N/N=C/c2cccs2)c(=O)n(-c2ccccc2)n1C`
0.14

Suppose we examine the molecule `C=CS(=O)(=O)N(Cc1nnn(Cc2ccccc2)c1Br)[C@H](C(=O)OC)C(C)C` ; what inhibition value has been reported?
-2.88

Name the reported inhibition value associated with the molecule `Nc1nc2c(ncn2[C@@H]2O[C@H](C(=O)N[C@H](Cc3ccccc3)C(=O)NCC3CCCCC3)[C@@H](O)[C@H]2O)c(=O)[nH]1`
1.02

Param item = OC(c1ccccc1)c1nc(-c2cnc3ccccc3c2)cs1 (stereo not given) ; retrieve measured inhibition.
9.07

Given `CC(=O)N1CCCN(C2=Nc3ccccc3Sc3ccccc32)CC1` , state its recorded inhibition.
-0.16

Query (molecule): CC(C)c1cccc(-c2csc(C(O)c3ccccc3)n2)c1 (stereo not given) ; field requested: inhibition
0.06

// inhibition lookup, key: `Cc1cc(C)cc(N(CCC#N)C(=O)CN2C(=O)NC3(CCCC3)C2=O)c1`
-0.09

* * *

Assay: DAX1 (NR0B1) inhibitors on StAR promoter, primary screen, cell-based, luminescence, SF-1 (NR5A1), full-length DAX-1 (AID 652010);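 note: 0% = DAX-1 cells with DMSO and 100% = cells lacking DAX-1 with DMSO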
Settings: HEK293T StAR-luciferase reporter, SF-1/DAX-1 repression relief; at 6.8 µM; stronger effect = higher value
About 4,100 (1.1%) of roughly 370,000 compounds were called active. Shown is part of a subset that was picked to be rich in actives.
Below, each entry is listed alongside its reported inhibition.
Enter your answer as a number in %; do not include the unit.

{"compound": "Cc1cc(N=Nc2ccc3ccccc3c2)ccc1O", "metric": "inhibition", "result_units": "%", "readout_number": 4.24}
{"compound": "CC(OC(=O)CNC(=O)c1ccco1)C(=O)Nc1ccc(Cl)cn1 (stereo not drawn)", "metric": "inhibition", "result_units": "%", "readout_number": -0.16}
{"compound": "COc1ccc(C(=O)COC(=O)c2nn(C)c(=O)c3ccccc23)c(OC)c1", "metric": "inhibition", "result_units": "%", "readout_number": 1.33}
{"compound": "Cc1ccc(C(=O)Nc2nnc(C3=COCCO3)o2)cc1C", "metric": "inhibition", "result_units": "%", "readout_number": 1.49}
{"compound": "CC(CNC(=O)c1ccc(N)cc1)NC(=O)c1ccc(N)cc1 (stereo not drawn)", "metric": "inhibition", "result_units": "%", "readout_number": 0.06}

Find the recorded inhibition belonging to `O=C(Nc1ccc(N2CCN(C(=O)c3ccccc3)CC2)c(Cl)c1)c1cccnc1` and report it.
-1.45

Quick check: inhibition of `O=C(Nc1ccc(N2CCOCC2)c(Cl)c1)c1ccc(S(=O)(=O)N2CCOCC2)cc1` ?
-0.43

* * *

Assay: DAX1 (NR0B1) inhibitors on StAR promoter, primary screen, cell-based, luminescence, SF-1 (NR5A1), full-length DAX-1 (AID 652010);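 note: 0% = DAX-1 cells with DMSO and 100% = cells lacking DAX-1 with DMSO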
Conditions: HEK293T StAR-luciferase reporter, SF-1/DAX-1 repression relief; at 6.8 µM
About 4,100 (1.1%) of roughly 370,000 compounds were called active.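 The calls were made as follows: active = inhibition above the mean over all tested compounds plus 3 SD (cut at about 3.6% in these data); inactive = the rest.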 What follows is part of a selection rich in actives, with near analogues and random picks from the rest.
# valid calls are 1 (yes) = active, 0 (no) = inactive; nothing else

{"compound": "CCOC(=O)c1cccc(NC(=O)CN(C)S(=O)(=O)c2ccc(-c3cocn3)s2)c1", "assigned_class": "0 (no)"}
{"compound": "CC(=O)Nc1cccc(-c2csc(Nc3cccc(C)n3)n2)c1", "assigned_class": "1 (yes)"}
{"compound": "CC(C)(C)c1ccc(/C=C/C(=O)Nc2ncccn2)cc1", "assigned_class": "1 (yes)"}
{"compound": "Cc1c(C(C)c2ccccc2O)[nH]c2ccccc12 (stereo not given)", "assigned_class": "0 (no)"}
{"compound": "COC(=O)c1cccc(Cn2ccc3ccc(-c4ccc5ccn(C(=O)c6ccccc6C)c5c4)cc32)c1", "assigned_class": "0 (no)"}
{"compound": "COC(=O)[C@]12C[C@H](CC(=O)NCCc3ccccc3OC)C(=O)N(Cc3ccco3)C1=C[C@H](C(C)C)O[C@@H]2C1CC1", "assigned_class": "0 (no)"}

Look up the recorded call for `O=S1(=O)c2ccc(Br)cc2OC[C@@H](Cc2ccccc2)N1Cc1cn(Cc2ccco2)nn1` in this test.
0 (no)

For `Cc1ccc(C2=CCN(C)C(=O)N2c2ccc(Cl)cc2)cc1` , which call appears in the assay record?
0 (no)

Per the records of this test, what outcome belongs to COc1ccc2c(c1)CN1CN(CCc3ccccc3)S(=O)(=O)CC21 (stereo not given) ?
0 (no)

# outcome recorded in this test, key = `Cc1cc(C)nc(NC(=O)/C=C/c2ccc(Cl)cc2)n1`
0 (no)
